# test-description: chemical genetic growth profiling, strain panel (AID 1159580);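 further: tested at 20 µM; growth read once vehicle control cultures reached saturation at 30 °C; 1 = growth at the plate median or of vehicle wells; lower values mean less growth of the strain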
# setup-conditions: S. cerevisiae deletion strains, growth OD, locus YER133W, strain GLC7, active compounds read low
Hit rate of the full screen: of about 5,500 compounds, about 2,000 (36%) were called active. Not shown: some 18% with an inconclusive outcome. Some of the results follow.
Consider the following compounds; for each one, report its normalized growth.
I only need the number, thanks.

Inquiry: Need normalized growth of `CC(=O)c1ccc(Cl)c(N=Cc2cc(Cl)cc(Cl)c2O)c1` , thanks.
Reply text: 0.354

Inquiry: Need normalized growth of `O=S(=O)(Oc1ccc(-c2csnn2)cc1)c1ccccc1Cl` , thanks.
Reply text: 0.939

Inquiry: Need normalized growth of `Cc1ccc(-n2cccc2)c(NS(=O)(=O)c2ccc(-c3ccno3)s2)c1` , thanks.
Reply text: 0.902

Inquiry: Need normalized growth of `O=C(Nc1cccc(Cl)c1)O/N=C1\CCCc2occc21` , thanks.
Reply text: 0.789

Inquiry: Need normalized growth of `O=S(=O)(Nc1ccccc1Oc1ccccc1)c1ccc(-c2ccno2)s1` , thanks.
Reply text: 0.964

Inquiry: Need normalized growth of C#CCSC1=NNC(c2ccccn2)S1 (stereo unspecified) , thanks.
Reply text: 0.162

###

Consider the following compounds; for each one, report its normalized growth.
# test-description: chemical genetic growth profiling, strain panel (AID 1159580)
# setup-conditions: S. cerevisiae deletion strains, growth OD, locus YLR342W, strain FKS1 (second series), active compounds read low
About 2,000 (36%) of roughly 5,500 compounds were called active. Another 18% or so got no clear call; they are omitted. The list shows a part of the results.

Inquiry: Need normalized growth of `NC1=NCCN1CC(=O)O` , thanks.
Reply text: 1.01 (inactive)

Inquiry: Need normalized growth of `O=C1NC(O)=NC1(c1ccccc1)c1ccccc1` , thanks.
Reply text: 0.985 (inactive)

Inquiry: Need normalized growth of `O=C(O)c1cc(O)c2c(c1)[C@@H]([C@H]1c3cc(C(=O)O)cc(O)c3C(=O)c3c(O[C@H]4O[C@H](CO)[C@@H](O)[C@H](O)[C@H]4O)cccc31)c1cccc(O[C@H]3O[C@H](CO)[C@@H](O)[C@H](O)[C@H]3O)c1C2=O` , thanks.
Reply text: 0.985 (inactive)

Inquiry: Need normalized growth of C=C(C)C1(O)OC(=O)C=C1OC (stereo unspecified) , thanks.
Reply text: 0.985 (inactive)

Inquiry: Need normalized growth of `CCCOc1ccc2nc(NC(=O)OC)[nH]c2c1` , thanks.
Reply text: 0.973 (inactive)

Inquiry: Need normalized growth of `CCCSc1ccc2nc(NC(=O)OC)[nH]c2c1` , thanks.
Reply text: 1.01 (inactive)

###

# test-description: chemical genetic growth profiling, strain panel (AID 1159580);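 further: tested at 20 µM; growth read once vehicle control cultures reached saturation at 30 °C; 1 = growth at the plate median or of vehicle wells; lower values mean less growth of the strain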
# setup-conditions: S. cerevisiae deletion strains, growth OD, locus YLR268W, strain sec22, active compounds read low
The whole screen tested about 5,500 compounds, of which about 2,000 (36%) were called active. Another 18% or so got no clear call; they are omitted. This is one part of the list.
observed-property: normalized growth
I only need the number, thanks.

Inquiry: Need normalized growth of `NCCCCCCNS(=O)(=O)c1cccc2c(Cl)cccc12` , thanks.
Reply text: 0.999

Inquiry: Need normalized growth of `Cc1cc(=O)oc2cc(O)c(O)cc12` , thanks.
Reply text: 0.983

Inquiry: Need normalized growth of `CCOC(=O)[C@H](CCc1ccccc1)N[C@@H](C)C(=O)N1CCC[C@H]1C(=O)O` , thanks.
Reply text: 1.01

Inquiry: Need normalized growth of CCN1CCN(C(=O)NC(C(=O)N[C@@H]2C(=O)N3[C@@H]2SC(C)(C)[C@@H]3C(=O)O)c2ccccc2)C(=O)C1=O (stereo partly drawn) , thanks.
Reply text: 1.02

Inquiry: Need normalized growth of `CN(C)[C@@H]1C(=O)C(C(N)=O)=C(O)[C@@]2(O)C(=O)C3=C(O)c4c(O)cccc4[C@@](C)(O)[C@H]3[C@H](O)[C@@H]12` , thanks.
Reply text: 0.975

Inquiry: Need normalized growth of `CCCOc1ccc2nc(NC(=O)OC)[nH]c2c1` , thanks.
Reply text: 0.971

Inquiry: Need normalized growth of C[C@H](CCC(=O)O)[C@H]1CCC2C3C(=O)CC4CC(=O)CC[C@]4(C)C3CC(=O)[C@@]21C (stereo partly drawn) , thanks.
Reply text: 1

Inquiry: Need normalized growth of `CCCc1c(OCCCCc2nn[nH]n2)ccc(C(C)=O)c1O` , thanks.
Reply text: 0.994

###

# test-description: chemical genetic growth profiling, strain panel (AID 1159580);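 further: tested at 20 µM; growth read once vehicle control cultures reached saturation at 30 °C; 1 = growth at the plate median or of vehicle wells; lower values mean less growth of the strain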
# setup-conditions: S. cerevisiae deletion strains, growth OD, locus YIL125W, strain kgd1
The whole screen tested about 5,500 compounds, of which about 2,000 (36%) were called active. Inconclusive results (about 18%) are left out. Cut-off read from the data, not from the text of the source: active = normalized growth mostly below about 0.91 (no sharp cut-off); inconclusive = no clear call, values can overlap the other calls; inactive = mostly above about 0.92. The list shows a part of the results.
# valid calls are 1 (yes) = active, 0 (no) = inactive; nothing else

Inquiry: // return assay outcome for CC12CCC(O)CC1CCC1C2[C@H](O)CC2(C)C(C3=CC(=O)OC3)CCC12O (some centres undefined)
Reply text: 0 (no)

Inquiry: // return assay outcome for `CC(=O)N[C@@H](Cc1c[nH]c2ccccc12)C(N)=O`
Reply text: 0 (no)

Inquiry: // return assay outcome for Cc1c(C)c2c(c(C)c1O)CCC(C)(CCCC(C)CCCC(C)CCCC(C)C)O2 (centres undefined)
Reply text: 0 (no)

Inquiry: // return assay outcome for CC(=O)O[C@@H]1C=C[C@@]2(C)C(C[C@@H](OC(C)=O)[C@@]3(C)C4=CC(=O)O[C@@H](c5ccoc5)[C@]4(C)CCC23)C1(C)C (some centres undefined)
Reply text: 1 (yes)

Inquiry: // return assay outcome for `O=C(NCO)c1cccnc1`
Reply text: 0 (no)

Inquiry: // return assay outcome for CC(C)CCCC(C)C1CC[C@@]2(C)C3=C(CC[C@]12C)[C@@]1(C)CC[C@H](O)C(C)(C)C1CC3 (some centres undefined)
Reply text: 0 (no)

Inquiry: // return assay outcome for `CN(C)CCCN1c2ccccc2Sc2ccc(Cl)cc21`
Reply text: 0 (no)

Inquiry: // return assay outcome for `O=C(O)c1cccnc1`
Reply text: 0 (no)

Inquiry: // return assay outcome for NC(Cn1ccc(=O)c(O)c1)C(=O)O (centres undefined)
Reply text: 0 (no)

Inquiry: // return assay outcome for `CN(C)CCCN1c2ccccc2Sc2ccc(C(F)(F)F)cc21`
Reply text: 0 (no)

Inquiry: // return assay outcome for `CN(C)[C@@H]1C(=O)C(C(N)=O)=C(O)[C@@]2(O)C(=O)C3=C(O)c4c(O)ccc(Cl)c4[C@@](C)(O)[C@H]3C[C@@H]12`
Reply text: 0 (no)

Inquiry: // return assay outcome for `CN(C)CCCN1c2ccccc2Sc2ccccc21`
Reply text: 0 (no)

Inquiry: // return assay outcome for `Nc1ccc(S(=O)(=O)NC(=O)c2ccccc2)cc1`
Reply text: 0 (no)

Inquiry: // return assay outcome for `CCOC(=O)NNc1nncc2ccccc12`
Reply text: 0 (no)

Inquiry: // return assay outcome for Cc1ccc2c(c1)C1(C)CCCC(C)(C(=O)O)C1CC2 (centres undefined)
Reply text: 0 (no)

Inquiry: // return assay outcome for `C=C1c2c(Cl)ccc(O)c2C(O)=C2C(=O)[C@]3(O)C(O)=C(C(N)=O)C(=O)[C@@H](N(C)C)[C@@H]3[C@@H](O)[C@H]12`
Reply text: 0 (no)

Inquiry: // return assay outcome for `CN(C)CCCN1c2ccccc2CCc2ccccc21`
Reply text: 0 (no)

Inquiry: // return assay outcome for CC(=O)O[C@H]1CCC2(C)C3=C(CCC2C1(C)C)[C@@]1(C)CC[C@@H](C(C)CCC=C(C)C)[C@]1(C)CC3 (some centres undefined)
Reply text: 0 (no)

Inquiry: // return assay outcome for CC(C)=CCCC(C)[C@@H]1CC[C@]2(C)C3=C(CC[C@@]12C)C1(C)CC[C@H](O)C(C)(C)C1CC3 (some centres undefined)
Reply text: 0 (no)

###

# test-description: chemical genetic growth profiling, strain panel (AID 1159580);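 further: tested at 20 µM; growth read once vehicle control cultures reached saturation at 30 °C; 1 = growth at the plate median or of vehicle wells; lower values mean less growth of the strain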
# setup-conditions: S. cerevisiae deletion strains, growth OD, locus YJL164C, strain tpk1
The campaign covered roughly 5,500 compounds. About 2,000 (36%) were called active. Another 18% or so got no clear call; they are omitted. No stated cut-off is given here; in the data, active means normalized growth mostly below about 0.91 (no sharp cut-off); inconclusive means no clear call, values can overlap the other calls; inactive means mostly above about 0.92. The list shows a part of the results.
# valid calls are class 1 = active, class 0 = inactive; nothing else

Inquiry: // return assay outcome for `C=C1c2c(Cl)ccc(O)c2C(O)=C2C(=O)[C@]3(O)C(O)=C(C(N)=O)C(=O)[C@@H](N(C)C)[C@@H]3[C@@H](O)[C@H]12`
Reply text: class 0

Inquiry: // return assay outcome for CC(=O)O[C@H]1CCC2(C)C3=C(CCC2C1(C)C)[C@@]1(C)CC[C@@H](C(C)CCC=C(C)C)[C@]1(C)CC3 (some centres not stated)
Reply text: class 0

Inquiry: // return assay outcome for CC(C)=CCCC(C)[C@@H]1CC[C@]2(C)C3=C(CC[C@@]12C)C1(C)CC[C@H](O)C(C)(C)C1CC3 (some centres not stated)
Reply text: class 0

Inquiry: // return assay outcome for `O=C(O)c1ccc(S(=O)(=O)N(Cl)Cl)cc1`
Reply text: class 0

Inquiry: // return assay outcome for `CCCSc1ccc2nc(NC(=O)OC)[nH]c2c1`
Reply text: class 0

Inquiry: // return assay outcome for `CN(C)[C@@H]1C(=O)C(C(N)=O)=C(O)[C@@]2(O)C(=O)C3=C(O)c4c(O)cccc4[C@@](C)(O)[C@H]3[C@H](O)[C@@H]12`
Reply text: class 0

Inquiry: // return assay outcome for `NC(=O)c1cccnc1`
Reply text: class 0

Inquiry: // return assay outcome for O=P1(N(CCCl)CCCl)NCCCO1 (configuration not stated)
Reply text: class 0

Inquiry: // return assay outcome for COC1CC2CCC(C)C(O)(O2)C(=O)C(=O)N2CCCCC2C(=O)OC(C(C)CC2CCC(O)C(OC)C2)CC(=O)C(C)/C=C(\C)C(O)C(OC)C(=O)C(C)CC(C)/C=C/C=C/C=C/1C (configuration not stated)
Reply text: class 1

Inquiry: // return assay outcome for `O=C(O)c1ccccc1`
Reply text: class 0

Inquiry: // return assay outcome for `CNNC`
Reply text: class 0

Inquiry: // return assay outcome for `C[C@H]1c2cccc(O)c2C(O)=C2C(=O)[C@]3(O)C(O)=C(C(N)=O)C(=O)[C@@H](N(C)C)[C@@H]3[C@@H](O)[C@@H]21`
Reply text: class 0

Inquiry: // return assay outcome for CC(=O)OCC(=O)[C@@]1(O)[C@H](C)CC2C3CCC4=CC(=O)C=C[C@]4(C)[C@@]3(F)[C@@H](O)C[C@@]21C (some centres not stated)
Reply text: class 0

Inquiry: // return assay outcome for `CCCN(CCC)S(=O)(=O)c1ccc(C(=O)O)cc1`
Reply text: class 0

Inquiry: // return assay outcome for `CC(C)=CCc1c2c(c3occ(-c4ccc(O)c(O)c4)c(=O)c3c1O)C=CC(C)(C)O2`
Reply text: class 1

Inquiry: // return assay outcome for `CN(C)[C@@H]1C(=O)C(C(N)=O)=C(O)[C@@]2(O)C(=O)C3=C(O)c4c(O)ccc(Cl)c4[C@@H](O)[C@H]3C[C@@H]12`
Reply text: class 0

Inquiry: // return assay outcome for `C=C1c2cccc(O)c2C(O)=C2C(=O)[C@]3(O)C(O)=C(C(N)=O)C(=O)[C@@H](N(C)C)[C@@H]3[C@@H](O)[C@H]12`
Reply text: class 0

The measured values listed here are drawn from PubChem BioAssay AID1159580.
